Property: ED50; scope: individual molecules
- Test system: PAF-induced Hypotension
- Test Details: Inhibition of PAF-induced Hypotension in Normotensive Rats
- Assay type: in vivo, male Sprague-Dawley rats
- Condition Summary: Rattus norvegicus, iv, 0.05 h; anesthetized normotensive rats; i.v. 3 min. before PAF (0.5 μg/Kg); dose inhibiting hypotension by 50%; read-out: ID50 (the source's name)
Field format: number, assumed mg/kg, no unit text.

Would you please look over these solved cases?
CCCC(CC(=O)N1CCC(Cn2c(C)nc3cnccc32)CC1)c1ccccc1 (centres unmarked); 0.0079
Cc1nc2cnccc2n1CC1CCN(C(=O)OCC2(c3ccccc3)CC2)CC1; 0.014
Cc1nc2cnccc2n1CC1CCN(C(=O)CC(O)(c2ccccc2)C(F)(F)F)CC1 (centres unmarked); 0.013
CCOC[C@@H](NC(=O)N1CCC(Cn2c(C)nc3cnccc32)CC1)c1ccccc1; 0.019
Cc1nc2cnccc2n1CC1CCN(C(=O)C=C(c2ccccc2)c2cccc(N)c2)CC1; 0.015
Cc1nc2cnccc2n1CC1CCN(C(=O)CC(C)c2ccccc2)CC1 (centres unmarked); 0.033
Cc1nc2cnccc2n1CC1CCN(C(=O)CC(C)(O)c2ccccc2)CC1 (centres unmarked); 0.043

Shift focus to the following entry.
What value of ED50 has been recorded for this entry: Cc1nc2cnccc2n1CC1CCN(C(=O)CC(C)(C)c2ccccc2)CC1
0.012

All figures here come from patent US5705504A.
